Here the recorded percent inhibition of Factor 7 is given for each entry.
# Tested on: human Factor 7 mRNA
# Assay Info: Dose-dependent antisense inhibition of human Factor 7 in HepB3 cells, lipofectin
# Type: cell-based
# Run Parameters: Table 7, 12.5 nM, approximately 16 hours
# Description: Cells were plated at a density of 4,000 cells per well and treated with lipofectin reagent with 3.125 nM, 6.25 nM, 12.5 nM, 25 nM, 50 nM, and 100 nM concentrations of antisense oligonucleotide, as indicated in Table 3. After a treatment period of approximately 16 hours, RNA was isolated from the cells and Factor 7 mRNA levels were measured by real-time RT-PCR, as described herein. […] Factor 7 mRNA levels were adjusted according to total RNA content as measured by RIBOGREEN®. […]
Strand notation (5' to 3'): a small letter for the sugar, then the base; units joined by * are phosphorothioate-linked, units joined directly phosphodiester-linked; [ ] holds rarer units or linkages, { } end groups; capitals alone tell only the bases. e = 2'-O-(2-methoxyethyl) (MOE); [5mC] = 5-methylcytosine; d = 2'-deoxy (DNA)
Lab book: enter the figure in %, no units written.

For orientation, consider the following solved cases.
| Substance | percent inhibition of Factor 7 [%] |
| --- | --- |
| 416508 (antisense e[5mC]*eG*eA*eG*eT*dT*d[5mC]*dT*dG*d[5mC]*dA*dG*dG*dA*dG*e[5mC]*eG*eG*e[5mC]*e[5mC]) [compound 416508] | 51 |
| 407939 (antisense eT*eG*e[5mC]*eA*eG*d[5mC]*d[5mC]*d[5mC]*dG*dG*d[5mC]*dA*d[5mC]*d[5mC]*d[5mC]*eA*eG*e[5mC]*eG*eA) [compound 407939] | 57 |

// query Fill in percent inhibition of Factor 7 for record 407935 (antisense eA*eT*eG*e[5mC]*eA*dT*dG*dG*dT*dG*dA*dT*dG*d[5mC]*dT*eT*e[5mC]*eT*eG*eA) [compound 407935]
// result 53

// query Fill in percent inhibition of Factor 7 for record 416472 (antisense e[5mC]*eA*eG*e[5mC]*e[5mC]*dT*dT*dG*dG*d[5mC]*dT*dT*dT*d[5mC]*dT*e[5mC]*eT*e[5mC]*e[5mC]*eA) [compound 416472]
// result 44

// query Fill in percent inhibition of Factor 7 for record 416455 (antisense e[5mC]*eG*e[5mC]*e[5mC]*eG*dG*d[5mC]*dT*d[5mC]*dT*dG*d[5mC]*dT*d[5mC]*dA*eT*e[5mC]*e[5mC]*e[5mC]*e[5mC]) [compound 416455]
// result 44

// query Fill in percent inhibition of Factor 7 for record 416507 (antisense eG*eG*eT*eT*eA*d[5mC]*dT*dG*dA*dG*d[5mC]*dG*d[5mC]*dG*dG*eA*eA*eG*eA*eA) [compound 416507]
// result 53

// query Fill in percent inhibition of Factor 7 for record 416549 (antisense eG*eA*e[5mC]*eA*eA*dT*dG*dG*dT*d[5mC]*dA*dG*dG*dG*d[5mC]*eT*eG*eG*eT*eT) [compound 416549]
// result 44

// query Fill in percent inhibition of Factor 7 for record 407900 (antisense e[5mC]*e[5mC]*e[5mC]*e[5mC]*eA*d[5mC]*dA*dA*dT*dT*d[5mC]*dG*dG*d[5mC]*d[5mC]*eT*eT*eG*eG*eG) [compound 407900]
// result 36
